molecular target: T1, IFN-αWA (human, UniProt P05015 24-189); assay: ProteOn SPR, cell supernatant;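 further: each binding measurement used just a single antigen concentration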
T1 construct: Recombinant, HEK293; also called IFN-α16
READOUT_KIND: Kd (nM)
Only the number, expressed in nM, is required.

Request the reported Kd associated with IFWM3406 (antibody, IgG1, V domains shown, mAb; IgG1/kappa said of the parent and of selected mAbs; also called IFWB3141) VH: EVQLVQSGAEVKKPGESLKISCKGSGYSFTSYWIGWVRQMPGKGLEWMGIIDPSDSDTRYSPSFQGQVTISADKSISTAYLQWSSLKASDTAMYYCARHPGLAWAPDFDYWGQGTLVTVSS VL: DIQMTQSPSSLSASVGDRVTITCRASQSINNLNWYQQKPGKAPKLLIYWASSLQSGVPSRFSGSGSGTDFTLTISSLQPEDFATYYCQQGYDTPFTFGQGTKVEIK
0.063
